- Test system: β3GlcNAcT
- test-name: β3GlcNAcT acceptor specificity (relative enzyme activity)
- Format: biochemical, N. meningitidis
- condition-label: substance used as acceptor substrate; Galβ(1-4)Glc = 100
property-name: Relative enzyme activity (%) β(1-3)GlcNAcT-activity
The reply should be a number in %, with the unit left off.

Some solved entries appear below for comparison.
compound	endpoint-value
OC[C@H]1O[C@@H](O[C@H]2[C@H](O)[C@@H](O)[C@H](O)O[C@@H]2CO)[C@H](O)[C@@H](O)[C@H]1O [Acceptor 4, Galβ(1-4)Glc, reference compound]	100
CC(=O)N[C@H]1C(O)O[C@H](CO)[C@@H](O[C@@H]2O[C@H](CO)[C@H](O)[C@H](O)[C@H]2O)[C@@H]1O (stereo partly shown)	7
OCC1O[C@@H](O)C(O)[C@@H](O)[C@@H]1O[C@@H]1OC(CO)[C@H](O)[C@H](O)C1O (stereo partly shown)	100

[ask] Given O=[N+]([O-])c1ccc(O[C@@H]2OC(CO)[C@@H](O[C@@H]3OC(CO)[C@H](O)[C@H](O)C3O)[C@H](O)C2O)cc1 (stereo partly shown) , state its recorded Relative enzyme activity (%) β(1-3)GlcNAcT-activity.
[reply] 945
